# System: NCI-H226 lung
# EXPERIMENT SUMMARY: NCI-60 one-dose screen, 48 h
# TEST PARAMETERS: 10 µM unless noted
Compounds without any hit were thinned out: in the full panel of roughly 83,000, 20% have a hit. Calls of active or inactive are those of the source. How the source made its calls: active means growth percent below 10; inactive means the rest.
Output constraint: value belongs to YES = active, NO = inactive

Enquiry: I'd appreciate the recorded outcome for COc1cc(-c2n[nH]nc2-c2ccccn2)cc(OC)c1OC from this test.
Return: NO

Enquiry: I'd appreciate the recorded outcome for c1ccc2nc(N/N=C3\CCCCC3C3CCCCC3)ccc2c1 (stereo not given) from this test.
Return: NO

Enquiry: I'd appreciate the recorded outcome for COc1ccc(C2=NN(C(N)=S)C(c3ccc4c(c3)OCO4)C2)cc1 (stereo not given) from this test.
Return: NO

Enquiry: I'd appreciate the recorded outcome for Nc1ccccc1C#Cc1ccccc1C#Cc1ccc(OCCCCCCOc2ccc(C#Cc3ccccc3C#Cc3ccccc3N)cc2)cc1 from this test.
Return: NO

Enquiry: I'd appreciate the recorded outcome for CCCCCCCCCCCCCCCCNC(=O)Nc1ccc2ccccc2c1 from this test.
Return: NO

Enquiry: I'd appreciate the recorded outcome for COc1cc(/C=C2\CN(C)CC3=C2Nc2nc(SC)[nH]c(=O)c2C3c2cc(OC)c(OC)c(OC)c2)cc(OC)c1OC (stereo not given) from this test.
Return: NO

Enquiry: I'd appreciate the recorded outcome for Cc1n(Cc2ccc3ccccc3c2)c2ccccc2[n+]1Cc1ccc2ccccc2c1 from this test.
Return: YES

Enquiry: I'd appreciate the recorded outcome for CCN(CC)c1ccc(C(=C2C=CC(=[N+](CC)Cc3cccc(S(=O)(=O)O)c3)C=C2)c2ccc(N(CC)Cc3cccc(S(=O)(=O)O)c3)cc2)cc1 from this test.
Return: NO

Enquiry: I'd appreciate the recorded outcome for C/C(=C\CCc1ccoc1)CC/C=C(\C)CCCNc1ccc(F)cc1 from this test.
Return: NO

Enquiry: I'd appreciate the recorded outcome for Cc1ccc2nc(-c3ccc(N(C)C)c(Br)c3)cn2c1 from this test.
Return: NO

Enquiry: I'd appreciate the recorded outcome for COc1cc(NC(=O)NCc2ccco2)ccc1-c1ccc(NC(=O)NCc2ccco2)cc1OC from this test.
Return: NO

Enquiry: I'd appreciate the recorded outcome for O=C1/C(=C/c2cccc(Cl)c2)CCc2ccccc21 from this test.
Return: NO

Enquiry: I'd appreciate the recorded outcome for Nc1ccn(C2O[C@H](CO)[C@@H](O)[C@@H]2O)c(=O)n1 (stereo not given in full) from this test.
Return: NO

Enquiry: I'd appreciate the recorded outcome for O=C(CNC(=O)c1cccc2ccccc12)Nc1ccccc1Oc1ccc(O)cc1 from this test.
Return: NO

Enquiry: I'd appreciate the recorded outcome for Cc1ccc(C2=Nc3c(ccc4c(C)c(C)c(=O)oc34)OC2)cc1 from this test.
Return: NO

Enquiry: I'd appreciate the recorded outcome for Nc1nc(Nc2ccccc2SSc2ccccc2Nc2nc(N)nc(-c3ccc(I)cc3)n2)nc(-c2ccc(I)cc2)n1 from this test.
Return: NO

Enquiry: I'd appreciate the recorded outcome for COC(=O)[C@H](CCCCNC(=O)OCc1ccccc1)NC(=O)[C@@H](NC(=O)Nc1cc(C(F)(F)F)cc(C(F)(F)F)c1)C(C)C from this test.
Return: NO

Enquiry: I'd appreciate the recorded outcome for C(#Cc1ccccc1C#Cc1ccccn1)c1ccc(OCCCCCCOc2ccc(C#Cc3ccccc3C#Cc3ccccn3)cc2)cc1 from this test.
Return: NO

Enquiry: I'd appreciate the recorded outcome for CCOC(=O)c1sc(NC(=O)COc2cccc(/C=C3\Cc4ccc(Cl)cc4C3=O)c2)nc1C from this test.
Return: NO

Enquiry: I'd appreciate the recorded outcome for Cc1ccc(S(=O)(=O)NCCN2c3nc4ccccc4cc3Sc3cc4ccccc4nc32)cc1 from this test.
Return: NO

Enquiry: I'd appreciate the recorded outcome for CCOC(=O)Nc1cc(-c2ccc(C)c(NS(C)(=O)=O)c2)nn2c(C)nnc12 from this test.
Return: NO

Enquiry: I'd appreciate the recorded outcome for O=C(Nc1cccc(-n2cc(-c3ccncc3)c(-c3cc(O)cc(Cl)c3)n2)c1)Nc1ccc(Cl)c(Cl)c1 from this test.
Return: NO

Enquiry: I'd appreciate the recorded outcome for NC(=NCCCCCCN=C(N)/N=C(\N)Nc1ccc(Cl)cc1)/N=C(\N)Nc1ccc(Cl)cc1 from this test.
Return: YES

Enquiry: I'd appreciate the recorded outcome for COC(=O)c1cc2c(/C=C3/NC(=S)NC3=O)coc2n1C from this test.
Return: NO

Enquiry: I'd appreciate the recorded outcome for O=C(NC1CCCCC1)c1ccc(Nc2ncnc3c2cnn3-c2ccccc2)cc1 from this test.
Return: NO

Taken from PubChem BioAssay (NCI).
